Parameter IC50: see the listing below.
Biological target: PARP-1 (Homo sapiens, UniProt P09874)
Construct: purchased Trevigen 4668-500-01
Sequence (P09874 whole entry): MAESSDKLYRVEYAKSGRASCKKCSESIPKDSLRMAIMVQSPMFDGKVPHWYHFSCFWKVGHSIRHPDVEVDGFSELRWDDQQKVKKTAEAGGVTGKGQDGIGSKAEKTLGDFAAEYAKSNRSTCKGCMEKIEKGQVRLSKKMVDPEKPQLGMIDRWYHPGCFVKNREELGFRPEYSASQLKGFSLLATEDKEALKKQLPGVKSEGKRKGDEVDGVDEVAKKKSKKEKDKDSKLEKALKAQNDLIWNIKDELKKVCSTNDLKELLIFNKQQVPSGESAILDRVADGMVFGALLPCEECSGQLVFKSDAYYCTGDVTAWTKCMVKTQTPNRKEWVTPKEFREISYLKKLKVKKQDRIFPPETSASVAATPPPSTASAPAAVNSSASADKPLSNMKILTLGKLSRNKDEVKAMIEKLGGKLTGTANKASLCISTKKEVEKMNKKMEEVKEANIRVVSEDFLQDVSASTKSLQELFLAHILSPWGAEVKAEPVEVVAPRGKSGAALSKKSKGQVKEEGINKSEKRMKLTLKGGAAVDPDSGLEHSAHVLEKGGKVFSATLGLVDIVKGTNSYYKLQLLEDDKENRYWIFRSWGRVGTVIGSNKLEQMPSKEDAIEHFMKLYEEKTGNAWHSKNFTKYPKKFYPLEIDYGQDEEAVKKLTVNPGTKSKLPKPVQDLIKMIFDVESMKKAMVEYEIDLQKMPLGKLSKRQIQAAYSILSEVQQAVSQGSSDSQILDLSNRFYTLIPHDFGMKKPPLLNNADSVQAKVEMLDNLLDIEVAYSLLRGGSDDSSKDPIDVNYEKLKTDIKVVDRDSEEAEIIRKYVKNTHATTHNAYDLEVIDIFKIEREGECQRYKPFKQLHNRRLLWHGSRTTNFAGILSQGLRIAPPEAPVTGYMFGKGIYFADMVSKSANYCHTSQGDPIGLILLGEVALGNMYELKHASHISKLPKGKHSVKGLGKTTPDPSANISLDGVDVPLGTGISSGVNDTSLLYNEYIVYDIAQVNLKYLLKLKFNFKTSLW
Experiment: PARP-1 SPA assay
Type: biochemical
Where a name gives a salt, the structure may show the parent alone.

- Compound: "Cc1c(Cc2ccc(F)c(C(=O)N3CC(=O)N(C4CCCCC4)C(C)C3)c2)n[nH]c(=O)c1C (centres unmarked) [Example 125, trifluoroacetate]"
  IC50: "5 to 25 nM"
- Compound: "Cc1c(Cc2ccc(F)c(C(=O)N3CCN(CCOC(C)C)C(=O)C3)c2)n[nH]c(=O)c1C [Example 172]"
  IC50: "5 to 25 nM"
- Compound: "Cc1c(Cc2ccc(F)c(C(=O)N3CCC(=O)N(C(C)C)CC3)c2)n[nH]c(=O)c1C [Example 36, trifluoroacetate]"
  IC50: "5 to 25 nM"
- Compound: "C[C@@H]1CN(C(=O)c2cc(Cc3cc(C(F)(F)F)c(=O)[nH]n3)ccc2F)CC(=O)N1C1CCCC1 [Example 151]"
  IC50: "5 to 25 nM"
- Compound: "Cc1c(Cc2ccc(F)c(C(=O)N3CCN(c4ccccn4)C(=O)C3)c2)n[nH]c(=O)c1C [Example 31, trifluoroacetate]"
  IC50: "5 to 25 nM"
- Compound: "Cc1c(Cc2ccc(F)c(C(=O)N3CCN(C4CCOCC4)C(=O)C3)c2)n[nH]c(=O)c1C(F)(F)F [Example 146, trifluoroacetate]"
  IC50: "5 to 25 nM"
- Compound: "Cc1c(Cc2ccc(F)c(C(=O)N3CC(=O)N(C4CCCC4)[C@@H](C)C3)c2)n[nH]c(=O)c1C [Example 114]"
  IC50: "5 to 25 nM"
- Compound: "Cc1c(Cc2ccc(F)c(C(=O)N3CCN(c4cccnc4)C(=O)C3)c2)n[nH]c(=O)c1C [Example 38]"
  IC50: "< 5 nM"
- Compound: "Cc1c(Cc2ccc(F)c(C(=O)N3CCN(C45CC(C4)C5)C(=O)C3)c2)n[nH]c(=O)c1C [Example 52, trifluoroacetate]"
  IC50: "5 to 25 nM"
- Compound: "Cc1c(Cc2ccc(F)c(C(=O)N3CCN(C4CCC(F)(F)CC4)C(=O)C3)c2)n[nH]c(=O)c1C [Example 48, trifluoroacetate]"
  IC50: "5 to 25 nM"
- Compound: "CCOCCN1CCN(C(=O)c2cc(Cc3n[nH]c(=O)c(C)c3C)ccc2F)CC1=O [Example 171]"
  IC50: "< 5 nM"
- Compound: "Cc1c(Cc2ccc(F)c(C(=O)N3CCN(C4CCC(F)C4)C(=O)C3)c2)n[nH]c(=O)c1C (centres unmarked) [Example 150]"
  IC50: "< 5 nM"
- Compound: "O=C(c1cc(Cc2cc(C(F)(F)F)c(=O)[nH]n2)ccc1F)N1CCN(C2CCCC2)C(=O)C1 [Example 33, trifluoroacetate]"
  IC50: "< 5 nM"
- Compound: "Cc1c(Cc2ccc(F)c(C(=O)N3CCN(CC4(C)CCCO4)C(=O)C3)c2)n[nH]c(=O)c1C (centres unmarked) [Example 97, trifluoroacetate]"
  IC50: "5 to 25 nM"
- Compound: "COCCN1CCN(C(=O)c2cc(Cc3n[nH]c(=O)c(C)c3C)ccc2F)CC1=O [Example 170]"
  IC50: "5 to 25 nM"
- Compound: "CCc1cc(Cc2ccc(F)c(C(=O)N3CCN(CC(F)(F)F)C(=O)C3)c2)n[nH]c1=O [Example 134, trifluoroacetate]"
  IC50: "5 to 25 nM"
- Compound: "Cc1c(Cc2ccc(F)c(C(=O)N3CCN([C@H]4CC[C@H](F)C4)C(=O)C3)c2)n[nH]c(=O)c1C (relative stereo) [Example 212]"
  IC50: "5 to 25 nM"
- Compound: "Cc1c(Cc2ccc(F)c(C(=O)N3CC(=O)N(C4CCCC4)C(CC(C)C)C3)c2)n[nH]c(=O)c1C (centres unmarked) [Example 185]"
  IC50: "25 to 150 nM"
- Compound: "Cc1c(Cc2ccc(F)c(C(=O)N3CCN(C(c4cccnc4)C(F)F)C(=O)C3)c2)n[nH]c(=O)c1C (centres unmarked) [Example 96, trifluoroacetate]"
  IC50: "5 to 25 nM"
- Compound: "Cc1c(Cc2ccc(F)c(C(=O)N3CC(=O)N(C4CCCCC4)CC3(C)C)c2)n[nH]c(=O)c1C [Example 93, trifluoroacetate]"
  IC50: "25 to 150 nM"
- Compound: "Cc1c(Cc2ccc(F)c(C(=O)N3CCN([C@H]4CC[C@@H](F)C4)C(=O)C3)c2)n[nH]c(=O)c1C (relative stereo) [Example 80, trifluoroacetate]"
  IC50: "< 5 nM"
- Compound: "Cc1c(Cc2ccc(F)c(C(=O)N3CCN(C)C(=O)C3)c2)n[nH]c(=O)c1C [Example 7, trifluoroacetate]"
  IC50: "5 to 25 nM"
- Compound: "COc1ccc(CN2C(=O)CN(C(=O)c3cc(Cc4n[nH]c(=O)c(C)c4C)ccc3F)CC2C)cc1 (centres unmarked) [Example 138, trifluoroacetate]"
  IC50: "5 to 25 nM"
- Compound: "Cc1c(Cc2ccc(F)c(C(=O)N3CCN(c4ccc(C#N)cc4)C(=O)C3)c2)n[nH]c(=O)c1C [Example 94, trifluoroacetate]"
  IC50: "< 5 nM"
- Compound: "Cc1c(Cc2ccc(F)c(C(=O)N3CCN([C@@H]4CCCC[C@H]4c4ccccc4)C(=O)C3)c2)n[nH]c(=O)c1C [Example 67, trifluoroacetate]"
  IC50: "5 to 25 nM"
- Compound: "Cc1c(Cc2ccc(F)c(C(=O)N3CC(=O)N(c4ccccc4)C(C)C3)c2)n[nH]c(=O)c1C (racemic) [Example 78 (LL4), trifluoroacetate]"
  IC50: "< 5 nM"
